- Assayed System: P. falciparum apicoplast DNA polymerase (Pf-apPOL) (Plasmodium falciparum, UniProt Q8ILY1)
- Sequence (Q8ILY1 entry or part of it): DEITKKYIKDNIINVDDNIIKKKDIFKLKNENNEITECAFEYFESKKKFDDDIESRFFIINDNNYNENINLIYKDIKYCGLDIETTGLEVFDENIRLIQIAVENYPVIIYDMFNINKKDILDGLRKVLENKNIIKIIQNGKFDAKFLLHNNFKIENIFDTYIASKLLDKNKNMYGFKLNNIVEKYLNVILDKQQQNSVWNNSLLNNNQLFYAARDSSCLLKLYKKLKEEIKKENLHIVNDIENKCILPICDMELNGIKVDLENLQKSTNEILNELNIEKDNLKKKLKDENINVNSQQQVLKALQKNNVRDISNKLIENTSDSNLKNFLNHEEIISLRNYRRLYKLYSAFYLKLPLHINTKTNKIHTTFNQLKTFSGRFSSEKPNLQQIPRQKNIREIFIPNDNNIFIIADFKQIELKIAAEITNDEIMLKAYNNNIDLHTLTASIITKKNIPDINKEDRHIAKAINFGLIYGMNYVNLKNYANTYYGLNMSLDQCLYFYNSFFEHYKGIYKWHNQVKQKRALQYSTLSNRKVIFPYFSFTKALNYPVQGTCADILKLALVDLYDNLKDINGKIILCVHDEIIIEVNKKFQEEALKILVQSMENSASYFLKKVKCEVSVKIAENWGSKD
- Protocol Summary: Fluorescence-based high-throughput DNA polymerase assay (molecular beacon), primary screen and dose-response
- Type: biochemical
- Measurement Conditions: DRC-2; read at 180'; concentration 10
% inhibition apPOL 180' 10 below 10% gives FALSE; % inhibition apPOL 180' 10 at or above it gives TRUE.

Answered examples (5):
[[record]]
molecule = "O=C(c1ccccc1)N1CCc2c(nc3cc(-c4ccccc4)[nH]n3c2=O)C1 [Molecule 30]"
class_name = "TRUE"

[[record]]
molecule = "Cc1ccsc1Cn1c(C)ccc1C [Molecule 70, Cc1ccsc1Cn1c(C)ccc1C]"
class_name = "FALSE"

[[record]]
molecule = "Cc1ccc(N2CCC(NC(=O)Cc3cccs3)C2=O)cc1C (centres unmarked) [Molecule 57, O=C(NC1CCN(C1=O)c1ccc(c(c1)C)C)Cc1cccs1]"
class_name = "TRUE"

[[record]]
molecule = "Cc1cc2[nH]c(C(=O)Nc3ccc(F)cc3)c(CN3CCOCC3)c2s1 [Molecule 60]"
class_name = "TRUE"

[[record]]
molecule = "COc1ccc(C2CC(c3ccc(Cl)cc3Cl)Nc3nc(N)nn32)cc1OC (centres unmarked) [Molecule 43]"
class_name = "TRUE"


Is reported % inhibition apPOL 180' 10 greater than or equal to 10% here: Cn1nc(-c2nc(-c3ccccc3)no2)c2c1CCN(C(=O)Cc1cccs1)C2 [Molecule 58]
TRUE

Determine whether this molecule has % inhibition apPOL 180' 10 no lower than 10%: CC(=O)OCC1=C(C(=O)[O-])N2C(=O)[C@@H](NC(=O)Cc3cccs3)[C@H]2SC1.[Na+] [Molecule 73]
FALSE

Quick check, % inhibition apPOL 180' 10 >= 10%? CC(C)CC(C(=O)O)N1C(=O)C2C3C=CC(C2C1=O)C1C(=O)N(C(CC(C)C)C(=O)O)C(=O)C31 (centres unmarked) [KU0193449]
FALSE

====

- Assayed System: P. falciparum apicoplast DNA polymerase (Pf-apPOL) (Plasmodium falciparum, UniProt Q8ILY1)
- Protocol Summary: Fluorescence-based high-throughput DNA polymerase assay (molecular beacon), primary screen and dose-response
- Assay type: biochemical
- Measurement Conditions: DRC-1; 10'; concentration 10
Outcome: fulfilled for % inhibition Apo pol 10' of at least 30%; not fulfilled for anything lower.

[[record]]
compound = "O=c1[nH]c2ccc(Br)cc2c(-c2ccccc2)c1C1=NNC(c2ccco2)C1 (stereo not drawn)"
class_name = "fulfilled"


With those in mind, consider the next compound.
I'd appreciate it if you could say whether `COc1ccc(-c2c(C(F)(F)F)nn3c(=O)cc(-c4cccc([N+](=O)[O-])c4)[nH]c23)cc1` has % inhibition Apo pol 10' at least equal to 30%.
fulfilled

====

- Assayed System: P. falciparum apicoplast DNA polymerase (Pf-apPOL) (Plasmodium falciparum)
- Protocol Summary: Fluorescence-based high-throughput DNA polymerase assay (molecular beacon), primary screen and dose-response
- Type: biochemical
- Measurement Conditions: DRC-1; 10'; concentration 5
Observable: % inhibition Apo pol 10'

Please go through the list and note % inhibition Apo pol 10' for each compound.
1. O=C1C(=Cc2ccccc2O)Oc2ccc(O)cc21 [KU0196475]
2. Cc1ccc(CCNC(=O)c2cnn3c(O)c(Cc4ccccc4F)c(C)nc23)cc1 [KU0097142]
3. COc1ccc2c(c1)CCc1c-2nc2ccc(Br)cc2c1C(=O)O [KU0059417]
4. O=C(Nc1nnc(-c2ccno2)o1)c1ccc2c(c1)OCO2 [KU0171343]
5. CS(=O)(=O)c1cccc(C(=O)Nc2nnc(-c3ccno3)o2)c1 [KU0171319]

1: -7.445%; 2: -17.1874%; 3: 33.9692%; 4: 4.323%; 5: 14.8177%

====

- Assayed System: P. falciparum apicoplast DNA polymerase (Pf-apPOL) (Plasmodium falciparum, UniProt Q8ILY1)
- Protocol Summary: Fluorescence-based high-throughput DNA polymerase assay (molecular beacon), primary screen and dose-response
- Assay type: biochemical
- Measurement Conditions: DRC-2; concentration 5; 5'
Classes (% inhibition Apo pol 5'): zone 1 (below 10%), zone 2 (10% to below 20%), zone 3 (20% or more)

Hey, which category is `COc1cc(/C=C2\C(=O)N(c3ccc(C(=O)O)cc3)N=C2C(F)(F)F)ccc1OCC(C)C` in, do you know?
zone 1

Tag the class for `Oc1cccnc1/N=C/c1cc(I)cc(I)c1O`
zone 3

Input `COc1ccc(-c2occ(C(=O)O)c2C(=O)O)cc1` ; output its category
zone 3

Consider `Cc1ccc(C2=N/C(=C\c3ccc(I)o3)C(=O)O2)cc1[N+](=O)[O-]` . To which % inhibition Apo pol 5' class does it belong?
zone 3

# bin label for `O=C(Nc1c2c(nn1-c1ccccc1)CSC2)c1ccco1`
zone 3

# classify by % inhibition Apo pol 5' band: `CCCCCc1c2c(cc(O)c1C(=O)O)OC(=O)c1c(cc(OC)cc1C(=O)CCCC)O2`
zone 2

Form: Item = `O=C(O)c1cc([N+](=O)[O-])c(N2CCN(c3cccc(C(F)(F)F)c3)CC2)c([N+](=O)[O-])c1` ; Class = ?
zone 2

In plain terms, what class is `Nc1ncnc(NC2CCCCC2)c1[N+](=O)[O-]` ?
zone 1

====

Could you please report measured % inhibition ApPOL 90' for the items listed next?
- Assayed System: P. falciparum apicoplast DNA polymerase (Pf-apPOL) (Plasmodium falciparum, UniProt Q8ILY1)
- Protocol Summary: Fluorescence-based high-throughput DNA polymerase assay (molecular beacon), primary screen and dose-response;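 as to % inhibition ApPOL 90': test concentration in µM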
- Type: biochemical
- Measurement Conditions: DRC-2, 90', concentration 2.5
One number for each entry, in %.

[[record]]
molecule = "O=C(O)CC1SC(c2ccc3c(c2)OCO3)=NC1=O (centres unmarked)"
value_unit = "%"
reported_value = 5.65


Value sought for every listed molecule: % inhibition ApPOL 90'.
1. COc1ccccc1CCC(=O)N1CCc2c(nc3cc(-c4ccccc4)[nH]n3c2=O)C1
2. COc1ccc(C(=O)Nc2cccc(-c3nc4ncccc4o3)c2)cc1[N+](=O)[O-]
3. O=C(c1c[nH]c2ncccc12)N1CCCCCC1 [Molecule 51, O=C(c1c[nH]c2c1cccn2)N1CCCCCC1]
4. CCOC(=O)C(NCc1ccco1)(NC(=O)c1ccco1)C(F)(F)F (centres unmarked)

1. 5
2. 0.838
3. 2.81
4. 1.27

Okay, here is my list. What is % inhibition ApPOL 90' for each of these?
1. Oc1ccc(N=Nc2ccccc2)c(O)c1
2. O=C(O)CC1=NN(c2cccc([N+](=O)[O-])c2)C(=O)C1

1. -1
2. 6

Kindly state the measured % inhibition ApPOL 90' obtained for `Cc1nn(CC(=O)NCCSCc2ccco2)c(C)c1Br` with P. falciparum apicoplast DNA polymerase (Pf-apPOL) (Plasmodium falciparum, UniProt Q8ILY1).
6

====

- Assayed System: P. falciparum apicoplast DNA polymerase (Pf-apPOL) (Plasmodium falciparum)
- Protocol Summary: Fluorescence-based high-throughput DNA polymerase assay (molecular beacon), primary screen and dose-response
- Assay type: biochemical
- Measurement Conditions: DRC-2, 5', concentration 20 (unit not given)
Please note: yes (1) applies when % inhibition Apo pol 5' is 40% or greater, and no (0) applies otherwise.

Below are worked cases with known answers.
[[record]]
compound = "NC(=O)c1cc[n+](CC2=C(C(=O)[O-])N3C(=O)[C@@H](NC(=O)[C@@H](c4ccccc4)S(=O)(=O)[O-])[C@H]3SC2)cc1.[Na+]"
class_name = "yes (1)"

[[record]]
compound = "O=C(Cn1ccc2c(=O)[nH]ccc21)Nc1ccc(Cl)cc1 [Molecule 36, O=C(Cn1ccc2c1cc[nH]c2=O)Nc1ccc(cc1)Cl]"
class_name = "yes (1)"

[[record]]
compound = "COc1cc(NC(=O)c2ccccc2)c(OC)cc1NC(=O)Cc1cccs1"
class_name = "no (0)"

[[record]]
compound = "O=C(O)c1ccc(-c2nc3cc(-c4ccc5nc(-c6ccc(C(=O)O)cc6)[nH]c5c4)ccc3[nH]2)cc1"
class_name = "no (0)"

[[record]]
compound = "O=c1[nH]c2ccc(Br)cc2c(-c2ccccc2)c1C1=NNC(c2ccco2)C1 (centres unmarked)"
class_name = "yes (1)"

[[record]]
compound = "N#Cc1c(C2CCCCC2)nc(Sc2ccc(C(F)(F)F)cc2[N+](=O)[O-])[nH]c1=O"
class_name = "yes (1)"


--- query ---
Please check the record `CCOc1cccc2cc(C(=O)Nc3nnc(-c4ccno4)o3)oc12` and state if its % inhibition Apo pol 5' is at or above 40%.
yes (1)

====

- Assayed System: bacteriophage T4 DNA polymerase (Enterobacteria phage T4)
- Construct: made in house
- Sequence (P04415 whole entry): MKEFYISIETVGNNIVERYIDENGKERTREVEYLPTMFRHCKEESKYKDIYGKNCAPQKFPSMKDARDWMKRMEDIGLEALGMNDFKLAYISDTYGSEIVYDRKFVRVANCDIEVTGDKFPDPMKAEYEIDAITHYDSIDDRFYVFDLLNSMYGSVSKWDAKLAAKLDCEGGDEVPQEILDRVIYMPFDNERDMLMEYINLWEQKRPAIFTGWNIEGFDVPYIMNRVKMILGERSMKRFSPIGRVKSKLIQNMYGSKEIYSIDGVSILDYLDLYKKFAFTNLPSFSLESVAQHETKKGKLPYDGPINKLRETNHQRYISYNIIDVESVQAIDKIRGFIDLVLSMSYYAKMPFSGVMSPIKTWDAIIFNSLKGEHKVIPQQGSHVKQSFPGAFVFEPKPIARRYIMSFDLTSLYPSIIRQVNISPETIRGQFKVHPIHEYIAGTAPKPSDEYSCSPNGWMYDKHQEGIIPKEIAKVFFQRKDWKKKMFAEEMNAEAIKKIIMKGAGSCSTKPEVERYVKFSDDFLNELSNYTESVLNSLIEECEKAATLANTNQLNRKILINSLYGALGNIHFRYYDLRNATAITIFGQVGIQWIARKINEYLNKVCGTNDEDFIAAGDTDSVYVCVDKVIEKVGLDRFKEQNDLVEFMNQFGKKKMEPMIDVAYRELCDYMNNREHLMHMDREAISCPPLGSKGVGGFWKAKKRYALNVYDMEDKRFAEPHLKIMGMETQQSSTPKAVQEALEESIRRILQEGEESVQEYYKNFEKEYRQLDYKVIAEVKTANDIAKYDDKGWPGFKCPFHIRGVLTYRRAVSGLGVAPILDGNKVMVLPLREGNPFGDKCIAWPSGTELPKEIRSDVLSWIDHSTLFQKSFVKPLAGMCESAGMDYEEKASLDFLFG
- Protocol Summary: Counter-screen against bacteriophage T4 DNA polymerase
- Format: biochemical
- Measurement Conditions: DRC-2; read at 40'; concentration 20
Observable: % inhibition T4 40' 20 (%)
Answers are plain numbers, in %.

[[record]]
compound = "Cc1ccc(N2CCC(NC(=O)Cc3cccs3)C2=O)cc1C (stereo not shown)"
reported_value = 27

[[record]]
compound = "N#Cc1c(O)nc(N2CCCCC2)nc1-c1ccc2c(c1)OCO2"
reported_value = -13

[[record]]
compound = "CCCc1ccc(Oc2coc3cc(OC)ccc3c2=O)cc1"
reported_value = -9


# % inhibition T4 40' 20 lookup, item `Nc1cc(Oc2ccc(O)c(N)c2)ccc1O`
-8
